- test_target: THR alpha (Homo sapiens, UniProt P10827)
- Construct: expressed in transfected cells; host or cells: HEK293T (ATCC CRL-3216)
- Sequence (P10827 1-410 isoform P10827-2): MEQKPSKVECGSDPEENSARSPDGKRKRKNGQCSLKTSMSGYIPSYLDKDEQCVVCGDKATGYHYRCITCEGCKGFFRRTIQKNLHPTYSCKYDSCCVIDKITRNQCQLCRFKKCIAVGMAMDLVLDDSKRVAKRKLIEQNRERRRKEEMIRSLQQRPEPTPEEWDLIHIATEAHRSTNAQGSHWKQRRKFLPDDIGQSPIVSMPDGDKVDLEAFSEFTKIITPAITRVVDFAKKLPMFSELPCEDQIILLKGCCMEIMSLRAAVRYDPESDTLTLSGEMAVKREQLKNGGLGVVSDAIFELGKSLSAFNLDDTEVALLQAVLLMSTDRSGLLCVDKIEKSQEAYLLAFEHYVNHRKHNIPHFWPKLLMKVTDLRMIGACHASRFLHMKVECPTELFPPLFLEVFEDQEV
- Sequence (P19793 1-462 partner): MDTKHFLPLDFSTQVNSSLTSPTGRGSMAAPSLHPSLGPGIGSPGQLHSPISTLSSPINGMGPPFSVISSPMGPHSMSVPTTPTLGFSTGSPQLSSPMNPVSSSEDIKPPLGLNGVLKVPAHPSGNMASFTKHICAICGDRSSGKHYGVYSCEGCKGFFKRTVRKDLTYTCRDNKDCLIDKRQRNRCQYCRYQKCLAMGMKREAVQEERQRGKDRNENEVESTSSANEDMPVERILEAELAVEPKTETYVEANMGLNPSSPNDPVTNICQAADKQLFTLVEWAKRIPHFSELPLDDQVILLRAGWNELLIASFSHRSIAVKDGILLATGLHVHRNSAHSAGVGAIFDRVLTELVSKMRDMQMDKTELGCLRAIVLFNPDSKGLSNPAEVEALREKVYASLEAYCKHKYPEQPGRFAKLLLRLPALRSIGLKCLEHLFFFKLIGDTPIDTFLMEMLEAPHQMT
- run_description: HEK293T THR alpha/RXR luciferase reporter assay (Assay 2)
- Type: cell-based
- recorded_conditions: Table 4; THR-alpha; Assay 2; read-out: Activity category Assay 2 (EC50, THR-alpha agonist activity)
pEC50: −log10 of the molar value.
quantity_name: pEC50

Below, 3 compounds whose answers are already recorded.
### Prompt Quickly give me recorded pEC50 for CCCc1c[nH]c2ccc(Oc3c(Cl)cc(-n4nc(C#N)c(=O)[nH]c4=O)cc3Cl)nc12 [Compound 19]
### Response 5.00 to 6.00

### Prompt Supply measured pEC50 of Nc1nn(-c2cc(Cl)c(Oc3cc(C4CC5(CC5)C4)c(=O)[nH]n3)c(Cl)c2)c(=O)[nH]c1=O [Compound 93] in your reply.
### Response 5.00 to 6.00

### Prompt Note down pEC50 recorded for Nc1nn(-c2cc(Cl)c(Oc3cc(-c4cccc(F)c4)c(=O)[nH]n3)c(Cl)c2)c(=O)[nH]c1=O [Compound 69]
### Response 6.60 to 7.30

Now for a further compound.
### Prompt Tell me its pEC50 given CCC(C)c1cc(Oc2c(Cl)cc(-n3nc(N)c(=O)[nH]c3=O)cc2Cl)n[nH]c1=O (stereo not shown) [Compound 39-B] as the entry.
### Response > 7.30
